tested on: UACC-257 melanoma; test: NCI tumour cell line growth inhibition, 48 h
quantity.measured: TGI (µM)
Return type: number; implicit unit µM.

compound=CC1(C)CCc2c(c(N=Nc3ccccc3)c3ccccc3c2O)O1 recorded_value=39.8

Look up and state reported TGI for Cn1c(O)c(C(=O)Nc2ccc([N+](=O)[O-])cc2)c(=O)n(C)c1=S
6.36

Look up and state reported TGI for C=C(Cl)C(Cl)(CBr)CCC(Cl)C(C)(C)Cl (centres undefined)
3.79

Look up and state reported TGI for O=C(NNS(=O)(=O)c1cc(C(F)(F)F)cc(C(F)(F)F)c1)c1cnn(-c2ccc(Cl)cc2)c1C(F)(F)F
43.7

###

Recorded GI50 by entry
system: DU-145 prostate; test: NCI tumour cell line growth inhibition, 48 h

Known GI50 results, listed for orientation:
molecule=CC(=O)N1CC(F)(F)c2c(Sc3ncc(N4CCC5(CC4)COC[C@H]5N)nc3N)cccc21 quantity_measured=GI50 recorded_value="25.7 µM"
molecule=CC(=O)/C(C)=N/N/C(N)=N\S(=O)(=O)c1cc(C(=O)Nc2ccccc2)c(Cl)cc1SCc1ccccc1 quantity_measured=GI50 recorded_value="3.5 µM"
molecule="Cn1cnc([N+](=O)[O-])c1Sc1ncnc2c1ncn2C1OC(CO)C(O)C1O (centres undefined)" quantity_measured=GI50 recorded_value="1.87 µM"

# ---- query molecule ----
Look up and state reported GI50 for COC(=O)CCC1=C(C)c2cc3[n-]c(cc4nc(cc5[n-]c(cc1n2)c(CCC(=O)OC)c5C)C=C4C)cc3C.[Cd+2]
4.5 µM

###

tested on: NCI-H226 lung; assay: NCI tumour cell line growth inhibition, 48 h; in the data active = GI50 below about 0.43 µM; inactive = the rest
Classes to choose from: yes (1) = active, no (0) = inactive

Hi, sorry to bother you, what did the test record for COc1ccc(NC(=O)c2cc(OC)c(OC)c(OC)c2)cc1O ?
no (0)

Hi, sorry to bother you, what did the test record for C=C(C)C1/C=C(/C(C)C)CC[C@]2(C)O[C@@H]2CC[C@H](C)CC1=O (stereo not given in full) ?
no (0)

Hi, sorry to bother you, what did the test record for COc1ccc([C@H]2O[C@@H](CO)C[C@]2(O)c2ccc(OC)cc2)cc1 ?
no (0)

Hi, sorry to bother you, what did the test record for CC(=O)Oc1c(OC(C)=O)c(-c2ccc(O)c(O)c2)c(O)c(O)c1-c1ccc(O)cc1 ?
no (0)

Hi, sorry to bother you, what did the test record for COc1ccc2c3c(c(OCCCN(C)C)nc2c1)-c1ccc(Cl)cc1C3=O ?
no (0)

###

test system: HT29 colon; assay: NCI tumour cell line growth inhibition, 48 h; in the data active means GI50 below about 0.43 µM; inactive means the rest
Classes to choose from: active, inactive

As a guide, the following entries are already answered.
molecule="NC(CSC(c1ccccc1)(c1ccccc1)c1ccc2ccccc2c1)C(=O)O (stereo not given)" label_class=active
molecule=COc1ccc([C@H]2O[C@@H](CO)C[C@]2(O)c2ccc(OC)cc2)cc1 label_class=inactive

Hi, sorry to bother you, what did the test record for CC(=O)/C(C)=N/N/C(N)=N\S(=O)(=O)c1cc(C(=O)Nc2ccccc2)c(Cl)cc1SCc1ccccc1 ?
inactive

Hi, sorry to bother you, what did the test record for Cn1cnc([N+](=O)[O-])c1Sc1ncnc2c1ncn2C1OC(CO)C(O)C1O (stereo not given) ?
inactive

Hi, sorry to bother you, what did the test record for Cn1c(=O)c2[nH]c(COc3ccc(C(C)(C)C)cc3)nc2n(C)c1=O ?
inactive

Hi, sorry to bother you, what did the test record for C[C@H]1[C@@H](OCC(CO[C@H]2O[C@@H]3O[C@@]4(C)CC[C@H]5[C@H](C)CC[C@@H]([C@H]2C)[C@@]35OO4)=NOCC(=O)O)OC2O[C@@]3(C)CC[C@H]4[C@H](C)CC[C@@H]1[C@@]24OO3 (stereo not given in full) ?
active

Hi, sorry to bother you, what did the test record for COc1cc(C2C(C#N)=C(N)OC3=C2C(=O)c2ccccc2C3=O)cc(OC)c1OC (stereo not given) ?
inactive

Hi, sorry to bother you, what did the test record for CC(C)(C)CC(C)(C)c1ccc(OCCOCCSC(=N)N)cc1 ?
inactive

Hi, sorry to bother you, what did the test record for O=[N+]([O-])c1ccc2c(N=Nc3c(O)ccc4ccccc34)c(O)cc(S(=O)(=O)O)c2c1 ?
inactive

Hi, sorry to bother you, what did the test record for COc1ccc2c3c(c(OCCCN(C)C)nc2c1)-c1ccc(Cl)cc1C3=O ?
inactive

###

Recorded TGI by entry
test system: EKVX NSCLC; test: NCI tumour cell line growth inhibition, 48 h

Known TGI results, listed for orientation:
compound="CN1OC(=O)N(C)C1c1ccccc1 (stereo not given)" recorded_value="> 100 µM"
compound=Cn1ccnc1C(=O)/C=C/c1ccc(C(=O)Nc2nc3ccccc3[nH]2)cc1 recorded_value="> 25 µM"
compound=O=C(NC(Nc1ccc(F)c(Cl)c1)(C(F)(F)F)C(F)(F)F)C(C(F)(F)F)C(F)(F)F recorded_value="> 100 µM"
compound=O=c1[nH]c(-c2ccc(C(F)(F)F)cc2)nc2c1CSCC2 recorded_value="> 100 µM"
compound="C=C1C(C)C2C(Cc3ccccc3)NC(=O)C23C(OC(C)=O)/C=C/C(C)(O)CC(C)C/C=C/C3C1O (stereo not given)" recorded_value="> 96.7 µM"
compound=C=CCn1c(=O)c(C)cn(/C(=C/C(=O)OCC)C(=O)OCC)c1=O recorded_value="28.7 µM"
compound="COc1nc(=O)n(C2CC(N=[N+]=[N-])C(CO)O2)cc1C (stereo not given)" recorded_value="> 100 µM"
compound="Cn1cnc([N+](=O)[O-])c1Sc1ncnc2c1ncn2C1OC(CO)C(O)C1O (stereo not given)" recorded_value="> 100 µM"

Look up and state reported TGI for Cn1c(=O)c2[nH]c(COc3ccc(C(C)(C)C)cc3)nc2n(C)c1=O
> 100 µM

Look up and state reported TGI for Fc1ccc(-c2ncn(C3CCNCC3)c2-c2ccnc(Oc3cccc(F)c3)n2)cc1
> 25 µM

###

test system: HCT-15 colon; experiment: NCI tumour cell line growth inhibition, 48 h
quantity.measured: GI50

compound=CN(C)c1ccc(/C=C/c2ccnc3ccccc23)cc1 recorded_value="3760 nM"
compound="COc1ccc(C(O)c2cc3c(N)c(C(=O)Nc4cccc(Br)c4)sc3nc2C)cc1 (stereo unspecified)" recorded_value="121 nM"
compound=CC(C)(C)CC(C)(C)c1ccc(OCCOCCSC(=N)N)cc1 recorded_value="1800 nM"
compound="C=C(C)C1/C=C(/C(C)C)CC[C@]2(C)O[C@@H]2CC[C@H](C)CC1=O (stereo partly specified)" recorded_value="> 100000 nM"
compound=CCNCCNc1cc(-c2ccc(F)cc2)c(C#N)c2nc3ccccc3n12 recorded_value="2310 nM"
compound=C#Cc1ccc(NC(=O)c2ccc(/C=C/C(=O)c3nccn3C)cc2)cc1 recorded_value="280 nM"

Look up and state reported GI50 for CC/C=C\CCC/C=C1/C(=O)C=C[C@@H]1C/C=C\CCCC(=O)O
1930 nM

Look up and state reported GI50 for N#Cc1nc(-c2ccccc2)oc1S(=O)(=O)N1CCOCC1
1450 nM

Look up and state reported GI50 for CCSC1=CC(=O)c2ccccc2C1=O
13900 nM

Look up and state reported GI50 for COc1ccc(/C=C\c2cc(OC)c(OC)c(OC)c2)c(NS(=O)(=O)c2ccc(C)cc2)c1O
39.5 nM

Look up and state reported GI50 for CN(Cc1cnc2nc(N)nc(N)c2n1)c1ccc(C(=O)NC(CCC(=O)O)C(=O)O)cc1 (stereo unspecified)
62.3 nM

Look up and state reported GI50 for O=c1[nH]c(-c2ccc(C(F)(F)F)cc2)nc2c1CSCC2
> 100000 nM

Look up and state reported GI50 for CCS/C(Nc1ccccc1)=C(\C#N)C(=O)Nc1ccc(OC)cc1
1190 nM

###

system: NCI-H23 lung; assay: NCI tumour cell line growth inhibition, 48 h; in the data active means GI50 below about 0.43 µM; inactive means the rest
Classes to choose from: True (active), False (inactive)

As a guide, the following entries are already answered.
molecule="C=C(C)[C@H]1CC/C(C)=C/CCC(C)C(=O)CC/C(CO)=C\\[C@@H]1O (some centres not stated)" assayed_target="NCI-H23 lung" label_class=False
molecule=c1ccc(-c2nc(N3CCNCC3)c3nc(-c4ccccc4)oc3n2)cc1 assayed_target="NCI-H23 lung" label_class=False
molecule=COc1ccc([C@H]2O[C@@H](CO)C[C@]2(O)c2ccc(OC)cc2)cc1 assayed_target="NCI-H23 lung" label_class=False
molecule=COc1ccc(NC(=O)c2cc(OC)c(OC)c(OC)c2)cc1O assayed_target="NCI-H23 lung" label_class=False
molecule=CCS/C(Nc1ccccc1)=C(\C#N)C(=O)Nc1ccc(OC)cc1 assayed_target="NCI-H23 lung" label_class=False
molecule="CN(Cc1cnc2nc(N)nc(N)c2n1)c1ccc(C(=O)NC(CCC(=O)O)C(=O)O)cc1 (configuration not stated)" assayed_target="NCI-H23 lung" label_class=True
molecule=O=C(CCN1CCCC1)Nc1ccc2c(NCCCc3ccccc3)c3ccccc3nc2c1 assayed_target="NCI-H23 lung" label_class=False
molecule=COc1ccccc1-n1c(SCc2cc(OC)c(OC)c(OC)c2)nc2ccc(Cl)cc2c1=O assayed_target="NCI-H23 lung" label_class=False

# evaluate next
Hi, sorry to bother you, what did the test record for C=C(C)C1/C=C(/C(C)C)CC[C@]2(C)O[C@@H]2CC[C@H](C)CC1=O (some centres not stated) ?
False
